# system: UniProt:P08246
# Sequence (P08246 30-267): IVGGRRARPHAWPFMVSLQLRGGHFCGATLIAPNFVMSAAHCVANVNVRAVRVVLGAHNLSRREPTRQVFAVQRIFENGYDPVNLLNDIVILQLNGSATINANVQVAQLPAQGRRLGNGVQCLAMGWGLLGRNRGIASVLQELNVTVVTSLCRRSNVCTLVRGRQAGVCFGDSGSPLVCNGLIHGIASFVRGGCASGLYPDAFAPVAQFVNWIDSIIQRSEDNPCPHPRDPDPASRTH
# assay-comment: Inhibition of HLE by desmosine-like peptidyl carbamates, steady state kinetics (Dixon plot, Lineweaver-Burk slope replot)
# Assay type: biochemical
# particulars: Table 2, variations in P3; Dixon plot, linear regression correlations >0.950; read-out: Ki values (μM) Dixon
parameter-measured: Ki (µM)

Below, each entry is followed by its recorded Ki result.
COC(=O)CCC(=O)N[C@@H](C)C(=O)N[C@@H](CCCCNC(=O)c1ccccc1)C(=O)N1CCC[C@H]1C(=O)CN(C(=O)Oc1ccc([N+](=O)[O-])cc1)C(C)C [Compound 49a] | 1.6
COC(=O)CCC(=O)NC(C)C(=O)NC(CCCNC(=O)c1ccccc1)C(=O)N1CCCC1C(=O)CN(C(=O)Oc1ccc([N+](=O)[O-])cc1)C(C)C (stereo not shown) [Compound 51a] | 5.33

1 = COC(=O)CCC(=O)N[C@@H](C)C(=O)N[C@@H](CCCCNC(=O)c1ccccc1)C(=O)N1CCC[C@H]1C(=O)CN(C(=O)Oc1ccc([N+](=O)[O-])cc1)C(C)C [Compound 49b]
2 = COC(=O)CCC(=O)NC(C)C(=O)NC(CCCNC(=O)OCc1ccccc1)C(=O)N1CCCC1C(=O)CN(C(=O)Oc1ccc([N+](=O)[O-])cc1)C(C)C (stereo not shown) [Compound 50b]
Request: Parameter metric = Ki. Return the lower-valued option from 1 and 2 . // respond with label for picked entry
Response: 2
